pIC50 values for the compounds below.
assayed.target: Recombinant human integrin α5β1 (Homo sapiens, UniProt P05556+P08648)
Sequence (P08648 42-995 limits assumed): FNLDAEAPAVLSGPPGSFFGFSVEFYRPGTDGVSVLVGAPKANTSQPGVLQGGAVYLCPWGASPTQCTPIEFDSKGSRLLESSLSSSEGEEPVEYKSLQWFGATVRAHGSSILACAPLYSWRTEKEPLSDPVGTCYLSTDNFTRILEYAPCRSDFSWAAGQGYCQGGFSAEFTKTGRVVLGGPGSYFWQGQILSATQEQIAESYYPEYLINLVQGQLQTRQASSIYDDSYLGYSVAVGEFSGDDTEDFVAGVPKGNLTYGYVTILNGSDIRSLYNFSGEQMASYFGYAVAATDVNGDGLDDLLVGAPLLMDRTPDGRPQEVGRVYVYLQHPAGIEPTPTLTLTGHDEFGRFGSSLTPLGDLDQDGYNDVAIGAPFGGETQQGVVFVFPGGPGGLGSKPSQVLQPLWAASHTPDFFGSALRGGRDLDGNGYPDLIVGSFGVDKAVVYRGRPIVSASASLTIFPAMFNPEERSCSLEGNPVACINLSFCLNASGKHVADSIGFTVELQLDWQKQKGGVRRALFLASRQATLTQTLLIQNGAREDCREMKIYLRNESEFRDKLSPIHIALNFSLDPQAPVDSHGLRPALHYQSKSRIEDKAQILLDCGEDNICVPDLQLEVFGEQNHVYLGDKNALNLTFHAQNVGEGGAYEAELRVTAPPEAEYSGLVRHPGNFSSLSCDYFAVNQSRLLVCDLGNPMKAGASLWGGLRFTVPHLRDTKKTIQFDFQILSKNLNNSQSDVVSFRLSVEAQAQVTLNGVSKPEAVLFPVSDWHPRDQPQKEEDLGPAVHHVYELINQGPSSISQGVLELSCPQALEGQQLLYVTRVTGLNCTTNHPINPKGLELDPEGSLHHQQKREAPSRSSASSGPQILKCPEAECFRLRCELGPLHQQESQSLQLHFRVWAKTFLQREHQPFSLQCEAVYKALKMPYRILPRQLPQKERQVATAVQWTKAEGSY
Sequence (P05556 21-728 limits assumed): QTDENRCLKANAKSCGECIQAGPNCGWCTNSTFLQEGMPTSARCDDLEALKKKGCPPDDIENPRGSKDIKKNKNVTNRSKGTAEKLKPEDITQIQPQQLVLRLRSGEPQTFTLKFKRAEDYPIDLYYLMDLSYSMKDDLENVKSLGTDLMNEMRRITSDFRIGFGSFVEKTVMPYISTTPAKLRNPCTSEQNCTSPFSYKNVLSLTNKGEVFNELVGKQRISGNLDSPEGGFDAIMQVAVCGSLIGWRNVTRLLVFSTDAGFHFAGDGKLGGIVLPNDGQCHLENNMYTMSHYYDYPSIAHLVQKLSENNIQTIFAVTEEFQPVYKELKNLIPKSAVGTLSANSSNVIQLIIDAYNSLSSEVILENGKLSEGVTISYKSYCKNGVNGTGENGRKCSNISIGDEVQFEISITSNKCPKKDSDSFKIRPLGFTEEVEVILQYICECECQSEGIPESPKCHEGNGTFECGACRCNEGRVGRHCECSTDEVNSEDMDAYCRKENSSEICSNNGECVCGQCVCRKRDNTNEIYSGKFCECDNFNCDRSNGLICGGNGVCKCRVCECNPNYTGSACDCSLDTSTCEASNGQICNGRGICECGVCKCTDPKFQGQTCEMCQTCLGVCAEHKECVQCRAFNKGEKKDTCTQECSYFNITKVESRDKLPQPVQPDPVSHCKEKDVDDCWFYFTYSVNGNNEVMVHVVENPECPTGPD
experimental.details: Solid Phase Receptor Assay (SPRA) for α5β1 function
experimental.conditions: plate-bound human fibronectin
Structures can show the parent of a compound that is named as a salt.
In textbook form, pIC50 equals minus log to base ten of the concentration in mol/L.

Field: example entries. Status: answers known.
{"compound": "Cn1nc(CC(CC(=O)O)c2cc(Br)cc(C(C)(C)C)c2)cc1OCCc1ccc2c(n1)NCCC2 (stereo not shown) [Example 16]", "pIC50": 7.52}
{"compound": "COc1ccc([C@H](CC(=O)O)Cc2cc(OCCc3ccc4c(n3)NCCC4)n(C)n2)cc1F [Example 15]", "pIC50": 7.07}
{"compound": "Cn1nc(CC(CC(=O)O)c2cc(C(C)(C)C)ccc2O)cc1OCCc1ccc2c(n1)NCCC2 (stereo not shown) [Example 42, Sodium Salt]", "pIC50": 8.68}

Suppose we examine the compound CC(C)c1cc(Br)cc(C(CC(=O)O)Cc2cc(OCCc3ccc4c(n3)NCCC4)n(C)n2)c1 (stereo not shown) [Example 40, trifluoroacetate] ; what pIC50 value has been reported?
7.68

---

pIC50 values for the compounds below.
assayed.target: Recombinant human integrin α5β1 (Homo sapiens, UniProt P05556+P08648)
experimental.details: Solid Phase Receptor Assay (SPRA) for α5β1 function
experimental.conditions: plate-bound human fibronectin
Counter-ions that a name gives are not always drawn.
In textbook form, pIC50 equals minus log to base ten of the concentration in mol/L.

Field: example entries. Status: answers known.
{"compound": "COc1ccc(C(C)(C)C)cc1C(CC(=O)O)Cc1cc(OCCc2ccc3c(n2)NCCC3)n(C)n1 (centres unmarked) [Example 32]", "pIC50": 7.48}
{"compound": "Cn1nc(CC(CC(=O)O)c2cc(F)cc(Cl)c2)cc1OCCc1ccc2c(n1)NCCC2 (centres unmarked) [Example 2]", "pIC50": 6.72}
{"compound": "Cn1nc(CC(CC(=O)O)c2cc(F)cc(C(C)(C)C(F)(F)F)c2)cc1OCCc1ccc2c(n1)NCCC2 (centres unmarked) [Example 24]", "pIC50": 7.82}

Return pIC50 measured with Recombinant human integrin α5β1 (Homo sapiens, UniProt P05556+P08648) given this compound: Cn1nc(CC(CC(=O)O)c2cc(C(C)(C)C)ccc2Cl)cc1OCCc1ccc2c(n1)NCCC2 (centres unmarked) [Example 43, Trifluoroacetate]
7.11

What do you have for Cn1nc(CC(CC(=O)O)c2cc(Br)cc(C(F)(F)F)c2)cc1OCCc1ccc2c(n1)NCCC2 (centres unmarked) [Example 10] ?
6.92

What do you have for COc1cc(C(C)(C)C)ccc1C(CC(=O)O)Cc1cc(OCCc2ccc3c(n2)NCCC3)n(C)n1 (centres unmarked) [Example 34] ?
6.26

What do you have for Cn1nc(CC(CC(=O)O)c2cc(Cl)cc(C(C)(C)C(F)(F)F)c2)cc1OCCc1ccc2c(n1)NCCC2 (centres unmarked) [Example 27] ?
7.74

What do you have for COc1ccc(C(CC(=O)O)Cc2cc(OCCc3ccc4c(n3)NCCC4)n(C)n2)cc1F (centres unmarked) [Example 3] ?
6.94

What do you have for Cn1nc(CC(CC(=O)O)c2cc(C(C)(C)C)cc(C(F)(F)F)c2)cc1OCCc1ccc2c(n1)NCCC2 (centres unmarked) [Example 37] ?
8.10
